inhibition in vivo at 50 mg/kg values by entry
Test system: Rattus norvegicus
Procedure Summary: Antiinflammatory activity in Wister albino rat assessed as inhibition of carrageenan-induced paw oedema at 50 mg/kg, ip administered 1 hr before carrageenan challenge measured after 1 hr of induction of inflammation relative to control
Format: functional
Run Conditions: route intraperitoneal
Answer format: numeric, % implied, no suffix.

| Smiles Notation | inhibition in vivo at 50 mg/kg [%] |
| --- | --- |
| CN1C/C(=C\c2ccc(-c3cccs3)cc2)C(=O)[C@]2(C1)[C@@H](c1ccc(-c3cccs3)cc1)CN(C)[C@@]21C(=O)N(C)c2ccccc21 | 84.7 |
| COc1ccc(/C=C2\CN(C)C[C@@]3(C2=O)[C@@H](c2ccccc2)CN(C)[C@@]32C(=O)Nc3ccccc32)cc1 | 80.1 |
| CN1C/C(=C\c2ccc(Cl)cc2)C(=O)[C@]2(C1)[C@@H](c1ccc(Cl)cc1)CN(C)[C@@]21C(=O)Nc2ccccc21 | 83.1 |

--- query ---
The reported value for CN1C/C(=C\c2ccccc2)C(=O)[C@]2(C1)[C@@H](c1ccccc1)CN(C)[C@@]21C(=O)N(C)c2ccccc21 in terms of inhibition in vivo at 50 mg/kg is 68
